Sourced from PubChem BioAssay AID1822

Tested on: M18 aspartyl aminopeptidase (Plasmodium falciparum 3D7)
Experiment: inhibition of P. falciparum M18 aminopeptidase – biochemical, QFRET, recombinant enzyme, primary screen (AID 1822);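 further: 0% = plate median of test compound wells and 100% = 2 mM ZnCl2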
Settings: recombinant PfM18AAP, H-Glu-NHMec fluorogenic cleavage; at 7.35 µM; stronger effect = higher value
Hit rate of the full screen: of about 290,000 compounds, about 3,500 (1.2%) were called active. Many of the other results were omitted from the sample, so actives are more common in it than they were.
quantity_kind: inhibition (%)
One number for each entry, in %.

Example compounds with recorded inhibition:
>>> experimental_value("Fc1ccccc1COc1cccc2cccnc12")
-17.2
>>> experimental_value("CC1(C)CC(=O)C=C(Nc2ccccc2)C1")
-2.72
>>> experimental_value("COc1ccc(Cl)cc1NC(=O)CCS(=O)(=O)c1ccc(Br)cc1")
-8.04
>>> experimental_value("CC(C(=O)Nc1ccc(O)c(C(=O)O)c1)N1C(=O)/C(=C/c2cccs2)SC1=S (stereo not given)")
30.4
>>> experimental_value("CCOC(=O)[C@@H]1[C@H]2COc3cc(OC)ccc3[C@@H]2N2C(=O)N(c3cccc(C)c3)C(=O)[C@@]12C")
-13.2

Report inhibition for every entry below.
1. S=c1[nH]c(-c2cccs2)cn1-c1ccccc1
2. O=S(=O)(Nc1ccccc1Br)c1cccs1
3. CCOc1ccccc1N1C(=O)CC(Sc2nccc(C)n2)C1=O (stereo not given)

38.5
-3.63
-4.13

Batch: inhibition for all items listed.
1. CC1=C(C)C(=O)OC(C(C)C2CCC3C4CC=C5CC(OC6OC(COC7OC(CO)C(O)C(O)C7O)C(O)C(O)C6O)CC(O)C5(C)C4CCC23C)C1 (stereo not given)
2. O=C(CCCN1C(=O)/C(=C/c2cccs2)SC1=S)Nc1ccc(O)cc1

1. 3.15
2. 1.87

----------
Tested on: M18 aspartyl aminopeptidase (Plasmodium falciparum 3D7)
Assay: inhibition of P. falciparum M18 aminopeptidase – biochemical, QFRET, recombinant enzyme, primary screen (AID 1822);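 further: 0% = plate median of test compound wells and 100% = 2 mM ZnCl2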
Conditions: recombinant PfM18AAP, H-Glu-NHMec fluorogenic cleavage; at 7.35 µM; stronger effect = higher value
Out of some 290,000 compounds screened, about 3,500 (1.2%) were called active. The entries come from a sample that favours actives as a whole.
Task for the reader: assign each of the following compounds its reported inhibition.
Numbers only, in %.

Study these solved cases before continuing.
>>> experimental_value("Cc1c(C)c(C)c2[nH]c(=S)[nH]c2c1C")
-2.04
>>> experimental_value("Cc1ccc2c(c1)N(CC(=O)N1CCOCC1)C(=O)CO2")
-1.57
>>> experimental_value("CN(c1ccc(O)cc1)c1nc(-c2cccnc2)cs1")
7.5

Please report inhibition for every entry that follows.
1. CCOc1ccccc1-c1cc(C(=O)N/N=C(\C)c2cccnc2)c2ccccc2n1
2. Cc1ccccc1Nc1nc(-c2cccnc2)cs1
3. CCOc1ccc(/C=N/NC(=O)CSc2ccccn2)cc1O
4. CCOc1ccc2nc(NC(=O)c3cc([N+](=O)[O-])ccc3N3CCOCC3)sc2c1
5. COc1cc(/C=N/NC(=O)Cc2ccccc2)cc(OC)c1OC
6. Cc1nccn1CC(=O)N/N=C/c1ccc(O)c(O)c1
7. O=c1[nH]c(=S)[nH]c2[nH]c(=S)[nH]c12

1: 1.07; 2: 1.18; 3: -7.37; 4: -2.3; 5: 0.54; 6: 59.7; 7: 43.7
